Test system: primary hPBMCs
MEASUREMENT_PROTOCOL: Induction of RANTES from primary hPBMCs (ELISA)
REPORTED_CONDITIONS: Homo sapiens, read-out: hPBMCs EC50 RANTES, Table 4b; Donor 22
pEC50: −log10 of the molar value.
Param threshold (10) applies to pEC50; output t when value >= threshold, f when value < threshold.

1. CCCCCCCCCCC[C@H](CC(=O)NC1C(NC(=O)C[C@@H](CCCCCCCCCCC)OCCCCCCCCCC)[C@H](OP(=O)(O)O)C(CO)O[C@H]1OC[C@H](NC(=O)C[C@@H](CCCCCCCCCCC)OCCCCCCCCCC)C(=O)O)OCCCCCCCCCC (some centres unmarked) ... t
2. CCCCCCCCCCC[C@H](CC(=O)NC1[C@H](OC[C@H](NC(=O)C[C@@H](CCCCCCCCCCC)OCCCCCCCCCC)C(=O)O)OC(CO)[C@@H](OS(=O)(=O)O)[C@@H]1NC(=O)C[C@@H](CCCCCCCCCCC)OCCCCCCCCCC)OCCCCCCCCCC (some centres unmarked) ... t
3. CCCCCCCCCCC[C@H](CC(=O)NCCO[C@@H]1OC(CO)[C@@H](OS(=O)(=O)O)[C@H](NC(=O)C[C@@H](CCCCCCCCCCC)OC(=O)CCCCCCCCC)C1NC(=O)C[C@@H](CCCCCCCCCCC)OC(=O)CCCCCCCCC)OC(=O)CCCCCCCCC (some centres unmarked) ... f
